Values compiled from patent US10918713B2.

assaySystem: DPB1*0401 (Homo sapiens, UniProt P04440+P20036)
experimentalDetails: biochemical
parameter: IC50 (µM)

CC[C@H](C)[C@H](N)C(=O)N[C@H](C(=O)N[C@@H](Cc1ccc(O)cc1)C(=O)N[C@H](C(=O)N[C@@H](C)C(=O)N[C@H](C(=O)N[C@@H](C)C(=O)N[C@H](C(=O)N[C@@H](CC(C)C)C(=O)N1CCC[C@H]1C(=O)N[C@@H](CC(N)=O)C(=O)N[C@@H](Cc1ccc(O)cc1)C(=O)N[C@@H](CS)C(=O)N[C@@H](CCCNC(=N)N)C(=O)N[C@@H](C)C(=O)O)[C@@H](C)O)[C@@H](C)O)C(C)C)[C@@H](C)O = 2.99
